Test system: HL-1
Assay: protection of cardiomyocytes from stress damage, SAR follow-up, cell-based, panel, H9c2 and HL-1, H2O2, 2-deoxyglucose, ATP luminescence (AID 651642)
Settings: H9c2/HL-1 cardiomyocyte 2-deoxyglucose damage, mean of runs, with 2-deoxyglucose
Active and inactive are the calls of the source.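 How the source made its calls: active means average half-effect concentration of 10 µM or less in every one of the four cell panels; inactive means the rest.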
The categories you may choose from are label 1 = active, label 0 = inactive

INSERT INTO assay_data (molecule, class) VALUES
  ('COc1cc(-c2cc(C(=O)NCC(=O)Nc3cccc(C(C)=O)c3)c3cc(C)ccc3n2)cc(OC)c1OC', 'label 0'),
  ('COc1cc(-c2cc(C(=O)NCC(=O)Nc3cccc(C(C)=O)c3)c3ccccc3n2)cc(OC)c1OC', 'label 1'),
  ('CCOC(=O)c1cccc(NC(=O)c2cc(-c3cc(OC)c(OC)c(OC)c3)nc3ccccc23)c1', 'label 0'),
  ('CCOC(=O)c1cccc(NC(=O)c2cc(-c3cc(OC)c(OC)c(OC)c3)nc3ccc(Cl)cc23)c1', 'label 0'),
  ('COc1cc(-c2cc(C(=O)Nc3cccc(C#N)c3)c3ccccc3n2)cc(OC)c1OC', 'label 0'),
  ('COc1cc(-c2cc(C(=O)NCC(=O)O)c3ccccc3n2)cc(OC)c1OC', 'label 0');

# outcome recorded in this test, key = CCOC(=O)c1cccc(NC(=O)c2cc(-c3cc(OC)c(OC)c(OC)c3)nc3ccc(Br)cc23)c1
label 0

# outcome recorded in this test, key = COc1ccc2nc(-c3cc(OC)c(OC)c(OC)c3)cc(C(=O)NCC(=O)Nc3ccc(C(C)=O)cc3)c2c1
label 1

# outcome recorded in this test, key = COc1ccc2c(c1OC)C(=O)N1c3ccccc3C(=O)N(Cc3ccc(C)cc3)C21 (centres undefined)
label 0

====

Tested on: HL-1
Assay: protection of cardiomyocytes from stress damage, SAR follow-up, cell-based, panel, H9c2 and HL-1, H2O2, 2-deoxyglucose, ATP luminescence (AID 651642)
Settings: H9c2/HL-1 cardiomyocyte 2-deoxyglucose damage, mean of runs, with 2-deoxyglucose
Active and inactive are the calls of the source.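 How the source made its calls: active means average half-effect concentration of 10 µM or less in every one of the four cell panels; inactive means the rest.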
The categories you may choose from are Y = active, N = inactive

Examples from the recorded data:
INSERT INTO assay_data (compound, measured_on, class) VALUES
  ('COc1ccc2c(c1OC)C(=O)N1c3ccccc3C(=O)N(Cc3cccc(Br)c3)C21 (centres undefined)', 'HL-1', 'Y'),
  ('COc1cc(-c2cc(C(=O)Nc3cccc(C(=O)NC4CC4)c3)c3ccccc3n2)cc(OC)c1OC', 'HL-1', 'Y'),
  ('COc1cc(-c2cc(C(=O)Nc3cccc(C(N)=O)c3)c3ccccc3n2)cc(OC)c1OC', 'HL-1', 'N'),
  ('COc1cc(-c2cc(C(=O)NCC(=O)Nc3ccc(C(C)=O)cc3)c3cc(F)ccc3n2)cc(OC)c1OC', 'HL-1', 'N'),
  ('COc1ccc(NC(=O)CNC(=O)c2cc(-c3cc(OC)c(OC)c(OC)c3)nc3ccccc23)cc1', 'HL-1', 'Y'),
  ('CCOC(=O)c1cccc(NC(=O)CNC(=O)c2cc(-c3cc(OC)c(OC)c(OC)c3)nc3ccccc23)c1', 'HL-1', 'N'),
  ('COc1cccc(CNC(=O)CNC(=O)c2cc(-c3cc(OC)c(OC)c(OC)c3)nc3ccccc23)c1', 'HL-1', 'N'),
  ('COc1cc(-c2cc(C(=O)Nc3cccc(C(=O)O)c3)c3ccccc3n2)cc(OC)c1OC', 'HL-1', 'N');

# outcome recorded in this test, key = COc1cc(-c2cc(C(=O)Nc3cccc(C(=O)Nc4ccccc4)c3)c3ccccc3n2)cc(OC)c1OC
Y
